From: patent US10889560B2

Kindly state pIC50 for each of the entries shown.
# assayedTarget: human type II topoisomerase (topo II)
# test: Topo II inhibitory activity
# Assay type: biochemical
pIC50: −log10 of the molar value.

Query :: Given the entry Nc1cccc(Nc2nc(-c3ccncc3)nc3c2CC(N)CC3)c1 (stereo not shown) [Example E1.6] , report its measured pIC50.
Result :: < 3.30

Query :: Follow-up entry: NC1CCc2nc(-c3ccncc3)nc(Nc3ccc(O)cc3)c2C1 (stereo not shown) [Example E1.9]
Result :: < 3.30

Query :: Please answer likewise for "Fc1cccc(Nc2nc(-c3ccncc3)nc3ccncc23)c1"
Result :: < 3.70

Query :: Try this molecule too: CNc1cccc(Nc2nc(-c3ccncc3)nc3c2CC(N)CC3)c1 (stereo not shown) [Example E1.7]
Result :: < 3.70
